Reported IC50, UniProt:Q92794.
Sequence (Q92794 with tags, fused parts or gaps): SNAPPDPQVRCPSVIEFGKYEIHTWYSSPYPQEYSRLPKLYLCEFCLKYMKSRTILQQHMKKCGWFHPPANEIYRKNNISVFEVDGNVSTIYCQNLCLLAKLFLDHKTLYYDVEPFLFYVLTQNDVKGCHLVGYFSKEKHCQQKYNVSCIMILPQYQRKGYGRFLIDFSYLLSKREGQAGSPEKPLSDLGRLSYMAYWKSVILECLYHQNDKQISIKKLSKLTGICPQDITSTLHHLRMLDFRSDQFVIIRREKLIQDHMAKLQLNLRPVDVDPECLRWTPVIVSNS

Cc1cc(-c2ccccc2)cc(C(=O)N2CC(S(=O)(=O)c3ccccc3)C2)c1F | > 100 µM
O=C(NNS(=O)(=O)C1CCOCC1)c1cc(Cl)cc(Cl)c1F | > 100 µM
O=C(NNS(=O)(=O)CC1CCOCC1)c1cc(-c2ccccc2)cc(Cl)c1F | ≤ 10 µM
CC(=O)N1CCOC(CS(=O)(=O)NNC(=O)c2cc(-c3cccc(F)c3)cc(C)c2F)C1 (centres unmarked) | ≤ 10 µM
Cc1cc(-c2cccc(C(=O)N(C)C)c2)cc(C(=O)NNS(=O)(=O)CC2CCCCC2)c1F | 10 to 50 µM

Missing value: IC50, UniProt:Q92794, entry `O=C(NNS(=O)(=O)C1CCCCC1)c1cc(Cl)cc(Cl)c1F` . Fill in?
> 100 µM

Return IC50 measured with UniProt:Q92794 given this compound: `CN1CCN(Cc2cc(Cl)c(F)c(C(=O)NNS(=O)(=O)C3CCOCC3)c2)CC1`
> 100 µM

Recall the recorded IC50 for `O=C(NNS(=O)(=O)c1cccc(Cl)c1)c1ccccc1F` with UniProt:Q92794 and state it.
10 to 50 µM

Source listed as patent US20220267260A1.
